# Study System: glucagon receptor (GCGR), primary cAMP assay (human, UniProt P47871 26-477)
# Sequence (P47871 26-477): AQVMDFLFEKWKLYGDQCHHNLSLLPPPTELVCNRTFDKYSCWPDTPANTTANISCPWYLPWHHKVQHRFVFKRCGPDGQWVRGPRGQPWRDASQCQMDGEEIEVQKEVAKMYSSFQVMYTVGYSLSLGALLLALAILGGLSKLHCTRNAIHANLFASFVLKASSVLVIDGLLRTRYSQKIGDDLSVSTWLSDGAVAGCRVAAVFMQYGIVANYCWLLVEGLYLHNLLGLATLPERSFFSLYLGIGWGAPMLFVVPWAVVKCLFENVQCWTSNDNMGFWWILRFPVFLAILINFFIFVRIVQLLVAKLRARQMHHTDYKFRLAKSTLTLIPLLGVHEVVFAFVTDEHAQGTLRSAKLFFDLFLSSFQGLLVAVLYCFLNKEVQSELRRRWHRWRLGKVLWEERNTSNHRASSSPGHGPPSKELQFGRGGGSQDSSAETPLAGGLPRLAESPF
# Experiment Summary: cell-based or functional assay
Starred links: 1 amine or outer side, 2 acyl side, 3 side chain; linkers in the order of their positions; H or OH if unused. Non-standard residues stand in square brackets, D forms with d. Groups on a side chain read outwards from the residue. Primed or numbered codes have the meaning given here. No end group written: not given here. *: point of attachment. Tyr(OMe) = COc1ccc(C[C@H](N[*:1])C(=O)[*:2])cc1; γGlu = O=C(O)[C@H](CCC(=O)[*:2])N[*:1]; Palmitoyl = CCCCCCCCCCCCCCCC(=O)*; αMeF = C[C@](N)(Cc1ccccc1)C(=O)O; αMeK = C[C@](N)(CCCCN)C(=O)O; Lauroyl = CCCCCCCCCCCC(=O)*; αMeS = C[C@](N)(CO)C(=O)O; PEG2′ = not defined here; Aib = CC(C)(N)C(=O)O
// reported Primary assay EC50 (cAMP), n2 per item
State the answer as a number, implicitly in nM.

Please review the entries below; each comes with its answer.
Binder	Unit String	Primary assay EC50 (cAMP), n2
H[Aib]EGS[αMeF]TSDV[αMeS]SK([PEG2′-PEG2′-γGlu-Lauroyl])LEGEAA[αMeK]E[Tyr(OMe)]IAK([PEG2′-PEG2′-γGlu-Lauroyl])VVEGG-NH2 [SEQ ID NO: 406]	nM	21.5
H[Aib]EGTFTSDVSK([PEG2′-PEG2′-γGlu-Lauroyl])FLEGEAAEEFIK([PEG2′-PEG2′-γGlu-Lauroyl])FVVEGG-NH2 [SEQ ID NO: 239]	nM	22.5
H[Aib]EGS[αMeF]TSDVSK([PEG2′-PEG2′-γGlu-Lauroyl])FLEGEAA[αMeK]EFIK([PEG2′-PEG2′-γGlu-Lauroyl])FVVEGG-NH2 [SEQ ID NO: 248]	nM	22.4
H[Aib]EGS[αMeF]TSDVSK([PEG2′-PEG2′-γGlu-Palmitoyl])YLEGEAA[αMeK]EFIAK([PEG2′-PEG2′-γGlu-Palmitoyl])VVEGG-NH2 [SEQ ID NO: 254]	nM	21.9
H[Aib]EGTFTSDVSK([PEG2′-PEG2′-γGlu-Lauroyl])YLEGEAAEEFIK([PEG2′-PEG2′-γGlu-Lauroyl])FVVEGG-NH2 [SEQ ID NO: 238]	nM	22.4

The reported value for H[Aib]EGS[αMeF]TSDVSK([PEG2′-PEG2′-γGlu-Palmitoyl])YLEGEAAEEFIK([PEG2′-PEG2′-γGlu-Palmitoyl])WVVEGG-NH2 [SEQ ID NO: 246] in terms of Primary assay EC50 (cAMP), n2 is 21.4

The reported value for H[Aib]EGS[αMeF]TSDK([PEG2′-PEG2′-γGlu-Palmitoyl])SSYLEGEAA[αMeK]EFIK([PEG2′-PEG2′-γGlu-Palmitoyl])WVVEGG-NH2 [SEQ ID NO: 259] in terms of Primary assay EC50 (cAMP), n2 is 21.4

The reported value for H[Aib]EGS[αMeF]TSDV[αMeS]SYK([PEG2′-PEG2′-γGlu-Lauroyl])EGEAA[αMeK]EFIK([PEG2′-PEG2′-γGlu-Lauroyl])WVVEGG-NH2 [SEQ ID NO: 268] in terms of Primary assay EC50 (cAMP), n2 is 22.2
